Parameter Inhibition: see the listing below.
Test system: Staphylococcus aureus
Settings: Concentration 32 ug.mL-1;; ASSAY_TEST Inhibition of Bacterial Growth; detection method Absorption (OD600); MEDIA CAMHB; plate type 384well; NBS; CORNING #3640; time 18 hr
Description: Antibacterial activity against Staphylococcus aureus MRSA ATCC 43300 (CO-ADD:GP_020); MIC in CAMBH media, using NBS plates, by OD(600)
Entries with a potency or affinity are not part of this list.
Reply numerically in %, unit not repeated.

In the examples that follow, each entry is paired with its recorded Inhibition.
* N#Cc1ccccc1NC(=O)Cn1nc2c(Oc3ccccc3)nccn2c1=O | 8.21
* Cc1oc(-c2cccc(Cl)c2)nc1CSc1nc2ccccc2n2c(C)nnc12 | 0.94
* COc1ccc(NC(=O)Cn2nc3c(Sc4cccc(C)c4)nccn3c2=O)cc1Cl | -3.33
* CCCCN(C)C(=O)CSc1nnc2c(=O)n(Cc3ccc(F)cc3)ccn12 | 7.74
* CCCCOc1ccc(-c2cc3c4nnc(SCC(=O)Nc5cccc(C#N)c5)n4ccn3n2)cc1 | -7.95
* CCN(C(=O)Cn1nc2cc(C)nc(Nc3ccc(C)c(F)c3)n2c1=O)c1ccccc1 | 15.67

### Prompt Any idea what its Inhibition is? The compound is Cc1ccc(NC(=O)CSc2nnc3n(CC4CCCO4)c(=O)c4sccc4n23)cc1F (stereo not drawn)
### Response 4.36

### Prompt Same question for CC(C)NC(=O)CSc1nnc2c(=O)n(Cc3ccc(F)cc3)ccn12 please.
### Response -0.55
